# system: T1, human IL-33 (R&D Systems, #3625-IL-010/CF) (human) (UniProt O95760)
# T1 sequence (looked up): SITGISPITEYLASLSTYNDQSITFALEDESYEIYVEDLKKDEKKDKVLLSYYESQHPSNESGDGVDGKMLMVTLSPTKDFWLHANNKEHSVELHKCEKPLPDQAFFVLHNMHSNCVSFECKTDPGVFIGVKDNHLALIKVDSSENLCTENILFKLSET
# assayText: SPR Biacore T200, 37 C
Criterion: koff meeting or surpassing 0.0007 s⁻¹. Met: satisfied. Not met: not satisfied.

>>> qualitativelabel("H4H9670P (antibody, from another filing, IgG4, V domains shown) VH: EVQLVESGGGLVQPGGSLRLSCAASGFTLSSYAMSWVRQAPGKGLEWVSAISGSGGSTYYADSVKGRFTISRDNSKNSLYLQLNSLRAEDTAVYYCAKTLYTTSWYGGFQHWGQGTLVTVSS VL: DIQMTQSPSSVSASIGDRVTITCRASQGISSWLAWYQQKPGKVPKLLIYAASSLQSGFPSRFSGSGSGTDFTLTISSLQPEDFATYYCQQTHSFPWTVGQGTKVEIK")
"not satisfied"
>>> qualitativelabel("H4H9664P (antibody, from another filing, IgG4, V domains shown) VH: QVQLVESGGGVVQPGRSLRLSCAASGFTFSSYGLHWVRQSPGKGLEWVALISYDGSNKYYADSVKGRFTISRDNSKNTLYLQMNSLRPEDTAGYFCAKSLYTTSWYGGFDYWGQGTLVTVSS VL: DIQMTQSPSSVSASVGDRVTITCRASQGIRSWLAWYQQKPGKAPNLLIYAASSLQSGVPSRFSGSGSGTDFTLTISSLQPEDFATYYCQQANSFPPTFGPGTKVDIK")
"not satisfied"
>>> qualitativelabel("H4H9675P (antibody, from another filing, IgG4, V domains shown) VH: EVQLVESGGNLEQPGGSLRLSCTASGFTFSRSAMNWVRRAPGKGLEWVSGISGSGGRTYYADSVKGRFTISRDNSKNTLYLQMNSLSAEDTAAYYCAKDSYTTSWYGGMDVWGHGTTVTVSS VL: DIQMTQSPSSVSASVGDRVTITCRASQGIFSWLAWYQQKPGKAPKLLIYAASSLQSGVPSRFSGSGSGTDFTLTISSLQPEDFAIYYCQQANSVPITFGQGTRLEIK")
"satisfied"
>>> qualitativelabel("H4H9663P (antibody, from another filing, IgG4, V domains shown) VH: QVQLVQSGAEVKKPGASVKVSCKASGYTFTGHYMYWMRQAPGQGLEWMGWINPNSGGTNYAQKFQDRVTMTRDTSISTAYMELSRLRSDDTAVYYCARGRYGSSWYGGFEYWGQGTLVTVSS VL: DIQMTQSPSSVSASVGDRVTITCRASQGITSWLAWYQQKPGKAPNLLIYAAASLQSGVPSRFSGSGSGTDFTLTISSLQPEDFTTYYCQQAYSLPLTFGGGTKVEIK")
"satisfied"
>>> qualitativelabel("H4H9676P (antibody, from another filing, IgG4, V domains shown) VH: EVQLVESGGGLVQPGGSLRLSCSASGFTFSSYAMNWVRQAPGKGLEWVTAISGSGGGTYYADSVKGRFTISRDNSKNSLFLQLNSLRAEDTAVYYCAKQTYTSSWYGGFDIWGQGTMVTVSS VL: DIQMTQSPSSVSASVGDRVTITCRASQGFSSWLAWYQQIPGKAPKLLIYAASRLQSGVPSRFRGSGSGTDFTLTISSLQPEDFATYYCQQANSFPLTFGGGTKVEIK")
"satisfied"
